EXPERIMENTAL DETAILS: The endotoxic potential (LD50) by iv administration and ip administration of galactosamine (400 mg/kg)
Format: ADME, organism-based
TEST SETTINGS: mouse, in vivo
VALUE KIND: log10 LD50 (log10 of the value in mg/kg)
Annotation: log10 of LD50, mg/kg basis.

A selection of reference data follows.
- MOLECULE: "CCCCCCCCCCCC(O)CC(=O)NC1C(OC(=O)C[C@H](NC(=O)CC(O)CCCCCCCCCCC)C(=O)O)OC(CO)C(O)C1OC(=O)CC(O)CCCCCCCCCCC (stereo partly drawn)"
  VALUE KIND: "log10 LD50"
  MEASUREMENT: 0.00
- MOLECULE: "CCCCCCCCCCCC(O)CC(=O)NC1C(OC(=O)CC[C@H](NC(=O)CC(O)CCCCCCCCCCC)C(=O)O)OC(CO)C(O)C1OC(=O)CC(O)CCCCCCCCCCC (stereo partly drawn)"
  VALUE KIND: "log10 LD50"
  MEASUREMENT: -0.52
- MOLECULE: "CCCCCCCCCCCC(O)CC(=O)NC1C(OC(=O)CC[C@H](NC(=O)CC(O)CCCCCCCCCCC)C(=O)O)OC(CO)C(O)C1NC(=O)CC(O)CCCCCCCCCCC (stereo partly drawn)"
  VALUE KIND: "log10 LD50"
  MEASUREMENT: -0.70
- MOLECULE: "CCCCCCCCCCCC(O)CC(=O)NC1C(OCCCN(CC(=O)O)C(=O)CC(O)CCCCCCCCCCC)OC(CO)C(O)C1OC(=O)CC(O)CCCCCCCCCCC (stereo not drawn)"
  VALUE KIND: "log10 LD50"
  MEASUREMENT: -1.00
- MOLECULE: "CCCCCCCCCCCC(O)CC(=O)NC1C(OC(=O)CC[C@@H](NC(=O)CC(O)CCCCCCCCCCC)C(=O)O)OC(CO)C(O)C1NC(=O)CC(O)CCCCCCCCCCC (stereo partly drawn)"
  VALUE KIND: "log10 LD50"
  MEASUREMENT: 0.71

Let us move to another entry and its log10 LD50.
Ask: Returns the measured log10 LD50 for the input molecule. Input: CCCCCCCCCCCC(O)CC(=O)NC1C(OC(=O)CC[C@@H](NC(=O)CC(O)CCCCCCCCCCC)C(=O)O)OC(CO)C(O)C1OC(=O)CC(O)CCCCCCCCCCC (stereo partly drawn)
Result: -1.40

###

Organism: Mus musculus
EXPERIMENTAL DETAILS: Compound was tested for its potency to induce TNF-alpha in murine macrophage cultures in the absence of INF at 1 mg/mL concentration
Assay type: functional
Lab note: anything with Activity below 300 IU ml-1 is marked condition met; values at 300 IU ml-1 or higher are marked condition not met.

Worked examples follow.
- COMPOUND: "CCCCCCCCCCCC(O)CC(=O)NC1C(OC(=O)CC[C@@H](NC(=O)CC(O)CCCCCCCCCCC)C(=O)O)OC(CO)C(O)C1OC(=O)CC(O)CCCCCCCCCCC (some centres not stated)"
  CLASSIFICATION: "condition not met"
- COMPOUND: "CCCCCCCCCCCC(O)CC(=O)NC1C(OC(=O)C[C@@H](NC(=O)CC(O)CCCCCCCCCCC)C(=O)O)OC(CO)C(O)C1OC(=O)CC(O)CCCCCCCCCCC (some centres not stated)"
  CLASSIFICATION: "condition met"
- COMPOUND: "CCCCCCCCCCCC(O)CC(=O)NC1C(OC(=O)CC[C@H](NC(=O)CC(O)CCCCCCCCCCC)C(=O)O)OC(CO)C(O)C1OC(=O)CC(O)CCCCCCCCCCC (some centres not stated)"
  CLASSIFICATION: "condition met"
- COMPOUND: "CCCCCCCCCCCC(O)CC(=O)NC1C(OCCCN(CC(=O)O)C(=O)CC(O)CCCCCCCCCCC)OC(CO)C(O)C1OC(=O)CC(O)CCCCCCCCCCC (configuration not stated)"
  CLASSIFICATION: "condition not met"
- COMPOUND: "CCCCCCCCCCCC(O)CC(=O)NC1C(OC(=O)CC[C@@H](NC(=O)CC(O)CCCCCCCCCCC)C(=O)O)OC(CO)C(O)C1NC(=O)CC(O)CCCCCCCCCCC (some centres not stated)"
  CLASSIFICATION: "condition met"

Ask: Say whether its Activity is strictly beneath 300 IU ml-1. Entry: CCCCCCCCCCCC(O)CC(=O)NC1C(OC(=O)CC[C@H](NC(=O)CC(O)CCCCCCCCCCC)C(=O)O)OC(CO)C(O)C1NC(=O)CC(O)CCCCCCCCCCC (some centres not stated)
Result: condition met

Ask: Say whether its Activity is strictly beneath 300 IU ml-1. Entry: CCCCCCCCCCCC(O)CC(=O)NC1C(OC(=O)C[C@H](NC(=O)CC(O)CCCCCCCCCCC)C(=O)O)OC(CO)C(O)C1OC(=O)CC(O)CCCCCCCCCCC (some centres not stated)
Result: condition met

###

Test system: Mus musculus
EXPERIMENTAL DETAILS: Nonspecific resistance against Pseudomonas aeruginosa infection in mice; administration of a single dose (12.5 mg/kg) 1 day prior to infection, group size 10 mice
Assay type: functional
Entries and their NSR survival rate values follow.
Form field (numeric): enter value without unit.

- COMPOUND: "CCCCCCCCCCCC(O)CC(=O)NC1C(OC(=O)CC[C@H](NC(=O)CC(O)CCCCCCCCCCC)C(=O)O)OC(CO)C(O)C1OC(=O)CC(O)CCCCCCCCCCC (stereo partly drawn)"
  TARGET OR TEST SYSTEM: "Mus musculus"
  NSR survival rate: 9
- COMPOUND: "CCCCCCCCCCCC(O)CC(=O)NC1C(OCCCN(CC(=O)O)C(=O)CC(O)CCCCCCCCCCC)OC(CO)C(O)C1O (stereo not drawn)"
  TARGET OR TEST SYSTEM: "Mus musculus"
  NSR survival rate: 3

Let us move to another entry and its NSR survival rate.
Ask: Param readout = NSR survival rate; param system = Mus musculus; param query = CCCCCCCCCCCC(O)CC(=O)NC1C(OC(=O)CC[C@H](NC(=O)CC(O)CCCCCCCCCCC)C(=O)O)OC(CO)C(O)C1NC(=O)CC(O)CCCCCCCCCCC (stereo partly drawn) ; response: value
Result: 8

###

System: Mus musculus
EXPERIMENTAL DETAILS: Nonspecific resistance against Pseudomonas aeruginosa infection in mice; administration of a single dose (12.5 mg/kg) 1 day prior to infection, group size 10 mice
Assay type: functional
VALUE KIND: NSR survival rate

A selection of reference data follows.
- COMPOUND: "CCCCCCCCCCCC(O)CC(=O)NC1C(OC(=O)CC[C@@H](NC(=O)CC(O)CCCCCCCCCCC)C(=O)O)OC(CO)C(O)C1OC(=O)CC(O)CCCCCCCCCCC (stereo not given in full)"
  TARGET OR TEST SYSTEM: "Mus musculus"
  VALUE KIND: "NSR survival rate"
  MEASUREMENT: 10
- COMPOUND: "CCCCCCCCCCCC(O)CC(=O)NC1C(OC(=O)C[C@@H](NC(=O)CC(O)CCCCCCCCCCC)C(=O)O)OC(CO)C(O)C1OC(=O)CC(O)CCCCCCCCCCC (stereo not given in full)"
  TARGET OR TEST SYSTEM: "Mus musculus"
  VALUE KIND: "NSR survival rate"
  MEASUREMENT: 10
- COMPOUND: "CCCCCCCCCCCC(O)CC(=O)NC1C(OC(=O)C[C@H](NC(=O)CC(O)CCCCCCCCCCC)C(=O)O)OC(CO)C(O)C1OC(=O)CC(O)CCCCCCCCCCC (stereo not given in full)"
  TARGET OR TEST SYSTEM: "Mus musculus"
  VALUE KIND: "NSR survival rate"
  MEASUREMENT: 8

Ask: Returns the measured NSR survival rate for the input compound. Input: CCCCCCCCCCCC(O)CC(=O)NC1C(OC(=O)CC[C@@H](NC(=O)CC(O)CCCCCCCCCCC)C(=O)O)OC(CO)C(O)C1NC(=O)CC(O)CCCCCCCCCCC (stereo not given in full)
Result: 3

Ask: Returns the measured NSR survival rate for the input compound. Input: CCCCCCCCCCCC(O)CC(=O)NC1C(OCCCN(CC(=O)O)C(=O)CC(O)CCCCCCCCCCC)OC(CO)C(O)C1OC(=O)CC(O)CCCCCCCCCCC (stereo not given)
Result: 10
